experimentalTarget: Type-1 angiotensin II receptor (Oryctolagus cuniculus, UniProt P34976)
Sequence (P34976 whole entry): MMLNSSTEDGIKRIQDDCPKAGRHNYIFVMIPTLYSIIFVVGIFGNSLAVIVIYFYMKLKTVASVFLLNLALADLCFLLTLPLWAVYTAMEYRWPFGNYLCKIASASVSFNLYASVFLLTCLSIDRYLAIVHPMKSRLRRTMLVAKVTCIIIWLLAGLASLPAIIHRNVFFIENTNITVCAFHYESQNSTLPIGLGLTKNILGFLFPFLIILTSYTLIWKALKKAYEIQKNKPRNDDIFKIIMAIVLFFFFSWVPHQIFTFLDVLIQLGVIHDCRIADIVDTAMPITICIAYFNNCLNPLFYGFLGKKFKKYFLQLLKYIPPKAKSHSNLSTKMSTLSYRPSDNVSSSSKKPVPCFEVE
measurementDescription: Inhibition of [125I]-Sar1-Ile8-Ang II binding to Angiotensin II receptor type 1 from rabbit aorta
quantityName: pIC50
# pIC50 is unitless: minus log10 of the molar concentration; print number only

Reported pIC50 for CCCc1ccc2c(c1)-c1ccc(cc1)Cn1c(CCC)nc3ccc(cc3c1=O)NCCCCCCCC(=O)NS2(=O)=O was 8.41

---

experimentalTarget: UniProt:P35351
Sequence (P35351 whole entry): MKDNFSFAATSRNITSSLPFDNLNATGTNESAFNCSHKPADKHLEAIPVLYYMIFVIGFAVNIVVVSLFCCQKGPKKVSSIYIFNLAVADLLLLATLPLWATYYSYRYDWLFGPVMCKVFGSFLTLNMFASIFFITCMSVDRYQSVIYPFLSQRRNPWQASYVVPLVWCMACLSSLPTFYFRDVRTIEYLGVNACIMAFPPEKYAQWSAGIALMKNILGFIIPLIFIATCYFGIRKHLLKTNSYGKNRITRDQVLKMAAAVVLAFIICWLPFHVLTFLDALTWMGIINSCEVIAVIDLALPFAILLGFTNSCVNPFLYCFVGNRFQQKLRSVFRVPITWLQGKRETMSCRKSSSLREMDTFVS
quantityName: pIC50
# pIC50 is unitless: minus log10 of the molar concentration; print number only

Field: example entries. Status: answers known.
CCCc1nc2ccc3cc2c(=O)n1Cc1ccc(cc1)-c1ccccc1S(=O)(=O)NC(=O)CCCCCCCN3C(=O)OCc1ccccc1 | 7.12
CCCc1ccc2c(c1)-c1ccc(cc1)Cn1c(CCC)nc3ccc(cc3c1=O)NCCCCCCCC(=O)NS2(=O)=O | 7.62
CCCc1nc2ccc3cc2c(=O)n1Cc1ccc(cc1)-c1ccccc1S(=O)(=O)NC(=O)CCCCCCCN3 | 6.70
CCCc1ccc2c(c1)-c1ccc(cc1)Cn1c(CCC)nc3ccc(cc3c1=O)N(C(=O)OCc1ccccc1)CCCCCCCC(=O)NS2(=O)=O | 7.70
CCCc1nc2ccc(NC(=O)c3ccccc3)cc2c(=O)n1Cc1ccc(-c2ccccc2-c2nnn[nH]2)cc1 | 5.52

Read the next record carefully.
The observed pIC50 for CCCc1nc2ccc3cc2c(=O)n1Cc1ccc(cc1)-c1ccccc1S(=O)(=O)NC(=O)CCCCCCCN3C(=O)c1ccccc1 when tested with UniProt:P35351 stands at 7.31
